Where do these numbers come from? They come from patent EP0098136A2.

Test system: secondary alcohol dehydrogenase enzyme
Assay: Inhibition of secondary alcohol dehydrogenase activity (oxidation of 2-propanol in the presence of potential inhibitors)
Format: biochemical, Pseudomonas fluorescens NRRL B-1244
Conditions: 1 mM inhibitor; oxidation of 2-propanol by purified enzyme
PARAMETER: % Inhibition (%)
Number only, in %; omit the unit.

O=[N+]([O-])c1ccc(O)c2ncccc12 [5-nitro-8-hydroxyquinoline]    100
CC(N)=O [acetamide]    0
c1ccc(-c2ccccn2)nc1    40
CCN1C(=O)C=CC1=O [N-ethylmaleimide]    33
c1cnc2c(c1)ccc1cccnc12    100

% Inhibition value, target or system secondary alcohol dehydrogenase enzyme, for `c1c[nH]cn1` : 0

% Inhibition value, target or system secondary alcohol dehydrogenase enzyme, for `[Hg+2]` : 100

###

Tested on: secondary alcohol dehydrogenase enzyme
Assay: Inhibition of secondary alcohol dehydrogenase activity (oxidation of 2-propanol in the presence of potential inhibitors)
Assay type: biochemical, Pseudomonas fluorescens NRRL B-1244
Conditions: 1 mM inhibitor; oxidation of 2-propanol by purified enzyme
PARAMETER: % Inhibition
Please report the result as a number followed by the unit.

O=C(O)c1cc[c]([Hg+])cc1.[OH-] [p-hydroxymercuribenzoate]    100%
O=C(O)CN(CCN(CC(=O)O)CC(=O)O)CC(=O)O [ethylenediamine tetraacetic acid (EDTA), ethylenediamine tetraacetic acid]    0%
[Cu+2]    10%
NNC(N)=S [thiosemicarbazide]    44%

% Inhibition reported for this molecule O=C(O)c1cc(SSc2ccc([N+](=O)[O-])c(C(=O)O)c2)ccc1[N+](=O)[O-] [5,5'-dithiobis-(2-nitrobenzoate)] : 100%
